Where do the numbers come from? From the supplement of paper PMC10065799.

# Tgt: Fyn (UniProt P06241)
# Sequence (P06241 whole entry, looked up): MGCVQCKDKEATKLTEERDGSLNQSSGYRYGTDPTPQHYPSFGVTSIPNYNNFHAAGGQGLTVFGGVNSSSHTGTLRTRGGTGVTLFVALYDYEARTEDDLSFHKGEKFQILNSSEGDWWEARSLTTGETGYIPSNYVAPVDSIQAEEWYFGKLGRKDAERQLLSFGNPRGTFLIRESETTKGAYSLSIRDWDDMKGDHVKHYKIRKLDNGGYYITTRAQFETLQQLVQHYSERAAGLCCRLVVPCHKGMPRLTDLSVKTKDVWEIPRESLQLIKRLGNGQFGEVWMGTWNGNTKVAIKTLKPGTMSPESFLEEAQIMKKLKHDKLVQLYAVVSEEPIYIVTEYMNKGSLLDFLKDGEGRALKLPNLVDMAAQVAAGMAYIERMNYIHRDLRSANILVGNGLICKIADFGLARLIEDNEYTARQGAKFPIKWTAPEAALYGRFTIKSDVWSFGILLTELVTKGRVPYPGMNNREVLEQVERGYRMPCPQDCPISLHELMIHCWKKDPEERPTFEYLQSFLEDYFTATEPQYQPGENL
# Test Description: phosphorylation enrichment, bacterial display (enrichment ratio); higher = better substrate or ligand; peptides without Tyr show the background;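 also: 11-residue human phosphosite peptides and single-mutation variants displayed on the E. coli surface, counted by deep sequencing, each peptide's frequency after selection divided by its frequency in the unselected input library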;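 also: frequency after pTyr selection over input frequency; kinase dosed for 20-30% of maximal phosphorylation in three min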
Examples of sequences with documented phosphorylation enrichment follow.
Response field accepts a number only; no unit should be typed.

// worked examples, phosphorylation enrichment included
macromolecule_sequence="SSEYHYVGGFY [CTSC_Y347]" measured=3.79
macromolecule_sequence="AALKLYHVSDS [VIL1_Y256]" measured=0.561
macromolecule_sequence="TKFRNYLIPKG [CYP2C8_Y379]" measured=0.365
macromolecule_sequence="YTFTSYYMHWV [IGHV1-46_Y51]" measured=0.771

// phosphorylation enrichment lookup, key: REVPVYISEDS [SYNM_Y460_G462S] 0.89

// phosphorylation enrichment lookup, key: TNEFEYDELIV [TGM1_Y136_D132N_YF] 0.475

// phosphorylation enrichment lookup, key: NNHGNYIVHLG [ETFDH_Y172_R175H] 0.525

// phosphorylation enrichment lookup, key: QRDSSYYWEIE [RAF1_Y340] 2.12

// phosphorylation enrichment lookup, key: KPIETYFSKNF [PLP1_Y50_L46P_YF] 0.544

// phosphorylation enrichment lookup, key: KSRQIYDAYIM [GRK3_Y109_R104K] 11.1

// phosphorylation enrichment lookup, key: GPCKAYELSQR [SETX_Y1297_R1294C] 0.533

// phosphorylation enrichment lookup, key: IGMSSYVMLAS [GGCX_Y301_F299S] 0.496

###

# Tgt: Jak2 (UniProt O60674)
# Sequence (O60674 whole entry, looked up): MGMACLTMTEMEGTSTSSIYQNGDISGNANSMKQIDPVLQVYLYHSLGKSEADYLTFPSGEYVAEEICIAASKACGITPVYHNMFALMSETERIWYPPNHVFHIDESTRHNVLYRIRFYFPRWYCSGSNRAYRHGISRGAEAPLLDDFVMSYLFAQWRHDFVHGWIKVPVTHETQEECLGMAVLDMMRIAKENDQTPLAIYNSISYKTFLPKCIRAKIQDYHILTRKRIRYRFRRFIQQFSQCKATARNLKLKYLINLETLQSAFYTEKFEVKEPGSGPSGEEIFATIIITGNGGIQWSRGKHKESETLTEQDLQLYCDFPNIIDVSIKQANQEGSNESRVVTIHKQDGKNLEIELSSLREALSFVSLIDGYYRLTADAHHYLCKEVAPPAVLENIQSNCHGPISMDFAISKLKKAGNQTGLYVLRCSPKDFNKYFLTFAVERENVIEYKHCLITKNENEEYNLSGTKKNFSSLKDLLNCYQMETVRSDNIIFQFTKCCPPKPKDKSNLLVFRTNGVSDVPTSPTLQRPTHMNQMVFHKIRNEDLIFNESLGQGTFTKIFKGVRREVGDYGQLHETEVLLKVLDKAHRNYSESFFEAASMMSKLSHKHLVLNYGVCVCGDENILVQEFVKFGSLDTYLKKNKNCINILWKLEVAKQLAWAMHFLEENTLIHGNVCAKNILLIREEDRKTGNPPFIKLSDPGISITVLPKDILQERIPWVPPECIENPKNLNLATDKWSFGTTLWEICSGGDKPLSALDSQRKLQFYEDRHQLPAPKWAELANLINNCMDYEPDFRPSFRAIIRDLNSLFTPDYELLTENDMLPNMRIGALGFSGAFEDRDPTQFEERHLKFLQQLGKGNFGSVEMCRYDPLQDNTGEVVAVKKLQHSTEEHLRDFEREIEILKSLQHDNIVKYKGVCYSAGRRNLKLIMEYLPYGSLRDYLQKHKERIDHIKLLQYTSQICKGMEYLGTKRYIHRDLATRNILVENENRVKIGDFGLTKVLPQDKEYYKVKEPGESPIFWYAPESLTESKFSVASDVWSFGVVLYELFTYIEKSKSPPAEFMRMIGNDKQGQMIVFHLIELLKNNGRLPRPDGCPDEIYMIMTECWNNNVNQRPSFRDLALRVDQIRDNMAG
# Test Description: phosphorylation enrichment, bacterial display (enrichment ratio); higher = better substrate or ligand; peptides without Tyr show the background
Examples of sequences with documented phosphorylation enrichment follow.
Response field accepts a number only; no unit should be typed.

// worked examples, phosphorylation enrichment included
macromolecule_sequence="WCSNDYLGMSQ [ALAS2_Y199_R204Q]" measured=4.19
macromolecule_sequence="DLVSEYQQYQD [TUBB3_Y422]" measured=1.42
macromolecule_sequence="MKTISYETLIA [DOCK10_Y1350]" measured=0.927
macromolecule_sequence="FLQTDDTSQVS [FRMPD1_Y846_Y846D]" measured=0.99
macromolecule_sequence="YDGKDYIALKE [HLA-A_Y147_N151K]" measured=1.03
macromolecule_sequence="LKVDVYGRSHK [FUT3_Y222]" measured=0.588
macromolecule_sequence="MSSLPYMKVIF [SLC4A11_Y853_M856V]" measured=1.02
macromolecule_sequence="GSLEDYVRETN [GIMAP6_Y176]" measured=0.724

Given the entry NREGVYTDFAP [TGFBI_Y537_V539D] , what phosphorylation enrichment was observed with Jak2 (UniProt O60674)? 0.823

Given the entry YRIGPYQPNVP [MATR3_Y784] , what phosphorylation enrichment was observed with Jak2 (UniProt O60674)? 0.44

Given the entry CEHFSYFGMKA [SLC15A2_Y60_R57H_YF] , what phosphorylation enrichment was observed with Jak2 (UniProt O60674)? 3.82

Given the entry SGPRRYNIAAL [TTR_Y125_T126N] , what phosphorylation enrichment was observed with Jak2 (UniProt O60674)? 0.511

Given the entry TKGNEYVFRVA , what phosphorylation enrichment was observed with Jak2 (UniProt O60674)? 0.549

Given the entry KRLFAYKMLMA [TMC2_Y209_Q205R_YF] , what phosphorylation enrichment was observed with Jak2 (UniProt O60674)? 0.669
